src = PubChem BioAssay (NCI)

- Test system: M14 melanoma
- Assay: NCI-60 one-dose screen, 48 h
- Experimental Conditions: 10 µM unless noted
About 83,000 compounds went through this panel and 20% of them were active in at least one assay; those are over-represented in the sample as a whole. Active and inactive are the calls of the source. Rule for the calls: active = growth percent below 10; inactive = the rest.
Hi! Could you answer with just one of these? active, inactive

Each compound tested received a call. Report the one for O=C(N/N=C/c1ccc([N+](=O)[O-])cc1)c1ccc2nc(-c3ccc(Cl)cc3)[nH]c2c1 .
inactive

Each compound tested received a call. Report the one for O=c1[nH]c(-c2ccc(Cl)cc2)cn1-c1ccc(-n2cc(-c3ccc(Cl)cc3)[nH]c2=O)cc1 .
inactive

Each compound tested received a call. Report the one for C#CCOc1ccc2ncnc(Nc3cccc(NC(=O)CCl)c3)c2c1 .
inactive

Each compound tested received a call. Report the one for CC1COCC(C)N1C1=C(Cl)C(=O)c2ccccc2C1=O (stereo not drawn) .
inactive

Each compound tested received a call. Report the one for CCn1cc(C(=O)N/N=C/c2ccc(Br)cc2)c(=O)c2cc(F)c(N3CCNC(C)C3)c(F)c21 (stereo not drawn) .
inactive

Each compound tested received a call. Report the one for CCOC(=O)c1c(C)c2c(n1C)CSc1cc(S(=O)(=O)c3ccccc3)c(=O)[nH]c1-2 .
inactive

Each compound tested received a call. Report the one for COc1ccc(NC(=O)c2sc3nc(C)c(C(O)c4ccccc4)cc3c2N)cc1 (stereo not drawn) .
active

Each compound tested received a call. Report the one for CN1CCN(CCCOc2ccc3ncnc(Nc4ccc(Oc5cccc(F)c5)c(Cl)c4)c3c2)CC1 .
active

Each compound tested received a call. Report the one for CCCCNC1=C(OCC)C(=O)c2ccccc2C1=O .
inactive

Each compound tested received a call. Report the one for Nc1n[nH]c2ccc([C@@H]3Nc4cc5[nH]ncc5cc4[C@H]4C5CCC(C5)[C@@H]34)cc12 (stereo partly drawn) .
active

Each compound tested received a call. Report the one for COc1ccc(Cn2cc(C(=O)N=Nc3c(O)[nH]c4c(Cl)cccc34)nn2)cc1 .
inactive

Each compound tested received a call. Report the one for CCN1CCN(CC(=O)Nc2nc3ccc(NCc4ccc(Br)cc4)cc3s2)CC1 .
active

Each compound tested received a call. Report the one for O=C(CBr)CN1C(=O)c2ccccc2C1=O .
inactive

###

Reported growth values follow for various compounds
- Tested on: 786-0 renal
- Assay: NCI-60 one-dose screen, 48 h (100 = growth as untreated, 0 = no growth, -100 = all killed)
- Experimental Conditions: 10 µM unless noted
This is part of a sample that, as a whole, favours compounds with a hit. Of some 83,000 tested, about 20% had one in any assay.
Dear colleague, please return just the value in %, with no unit written.

[
  {
    "Compound Smiles": "COc1ncc2cc1NS(=O)(=O)c1cccc(c1)C(=O)NCC1=CC=C(S1)c1ncnc3c1SC2=C3C",
    "growth, %": -23.8
  }
]

Requested field: growth. Item: CN(C)c1ccc(/C=C/C(=O)c2ccc(Nc3nc(Nc4ccc(F)cc4)nc(Nc4ccc(Cl)cc4)n3)cc2)cc1
71.2

Requested field: growth. Item: O=C(N/N=C/c1ccc(Cl)cc1Cl)c1ccc2nc(-c3ccc(Cl)cc3)[nH]c2c1
-42.1

Requested field: growth. Item: CN1CCN(C(=O)c2cc(-c3ccc4ncnc(N5CCc6cc(F)c(Cl)cc65)c4c3)cnc2N)CC1
2.28

###

- System: MALME-3M melanoma
- Assay: NCI-60 one-dose screen, 48 h (100 = growth as untreated, 0 = no growth, -100 = all killed)
- Experimental Conditions: 10 µM unless noted
This is part of a sample that, as a whole, favours compounds with a hit. Of some 83,000 tested, about 20% had one in any assay.
Recorded Metric: growth (%)
Dear colleague, please return just the value in %, with no unit written.

Worked set:
[
  {
    "Molecule": "COc1ccc2cc(Cn3cc[n+](Cc4ccc5ccccc5c4)c3)ccc2c1",
    "growth / %": 24.3
  },
  {
    "Molecule": "O=C(Nc1cccnc1Nc1ccc(Cl)cc1)c1cn(Cc2ccc(F)cc2)nn1",
    "growth / %": 117
  },
  {
    "Molecule": "NS(=O)(=O)c1ccc(N/C=C/C(=O)c2cc3ccccc3oc2=O)cc1",
    "growth / %": 85
  },
  {
    "Molecule": "C=CC(=O)N1CCN(c2ccc3cccc(NC(=O)c4cnc(C)cn4)c3n2)CC1",
    "growth / %": 30.5
  },
  {
    "Molecule": "C=NNc1ccccc1",
    "growth / %": 126
  }
]

Requested field: growth. Item: COP(=O)(OC)c1nnn(-c2cccc([N+](=O)[O-])c2)c1C
105

Requested field: growth. Item: COc1cccc(C(=O)OCC(O)C(=O)NC23CC4CC(CC(C4)C2)C3)c1 (stereo not given)
99.1

Requested field: growth. Item: CCOC(=O)c1c(NC(=O)c2ccc(C(C)(C)C)cc2)sc2cc(O)ccc12
98.7

Requested field: growth. Item: Cc1ccc(C)c2c1C(O)(C#Cc1ccccc1)c1ccccc1C2(O)C#Cc1ccccc1 (stereo not given)
39.2

Requested field: growth. Item: CCN(CC)c1ccc(/C=N\NC(=O)c2cccc(Nc3ccnc(C(F)(F)F)c3)c2)c(O)c1
24.4

###

- Test system: SF-268 CNS
- Assay: NCI-60 one-dose screen, 48 h (100 = growth as untreated, 0 = no growth, -100 = all killed)
- Experimental Conditions: 10 µM unless noted
About 83,000 compounds went through this panel and 20% of them were active in at least one assay; those are over-represented in the sample as a whole.
Rule for this label: TRUE means growth is less than 40%; FALSE means growth is at least 40%.

[
  {
    "Compound": "Cc1ncc(C(=O)Nc2ccc(CN3CCN(C)CC3)c(C(F)(F)F)c2)cc1C#Cc1cnc(N)c2ccncc12",
    "Class": "TRUE"
  }
]

Could you please tell me whether growth recorded for COc1ccc(-c2ccc(=O)oc2C#Cc2cc(OC)c(OC)c(OC)c2)cc1O is less than 40%?
TRUE

Could you please tell me whether growth recorded for CCc1ccc(CCC(=O)Nc2ncc(Cc3ccc(Cl)cc3)s2)o1 is less than 40%?
FALSE

Could you please tell me whether growth recorded for NS(=O)(=O)c1ccc(N/C=C/C(=O)c2cc3ccccc3oc2=O)cc1 is less than 40%?
FALSE

Could you please tell me whether growth recorded for NC(=S)N/N=C/c1cn(-c2ccccc2)nc1-c1cc2ccccc2oc1=O is less than 40%?
FALSE

###

- Test system: MALME-3M melanoma
- Assay: NCI-60 one-dose screen, 48 h (100 = growth as untreated, 0 = no growth, -100 = all killed)
- Experimental Conditions: 10 µM unless noted
The panel holds about 83,000 compounds, 20% with a hit somewhere; the sample as a whole holds those more often.
Rule for this label: Satisfied means growth is less than 80%; Not satisfied means growth is at least 80%.

Solved cases below.
[
  {
    "Compound": "Cc1cccc(-n2c(C)nc3ccc(N4CCCNC4=O)cc3c2=O)c1",
    "Class": "Not satisfied"
  },
  {
    "Compound": "CN1CCN(CCCOC(=O)c2c3c(n4ccccc24)C(=O)c2ncccc2C3=O)CC1",
    "Class": "Satisfied"
  }
]

Could you please tell me whether growth recorded for CC1=NN(c2ccc(Cl)cc2)CC1(C)N=O (centres undefined) is less than 80%?
Satisfied

Could you please tell me whether growth recorded for Cc1cc2nc3c4ccccc4n(CCN(C)C)c3nc2cc1C is less than 80%?
Satisfied

###

- Test system: UACC-257 melanoma
- Assay: NCI-60 one-dose screen, 48 h (100 = growth as untreated, 0 = no growth, -100 = all killed)
- Experimental Conditions: 10 µM unless noted
Compounds without any hit were thinned out: in the full panel of roughly 83,000, 20% have a hit.
Rule for this label: Yes means growth is less than 70%; No means growth is at least 70%.

Solved cases below.
[
  {
    "Compound": "COc1ccc2c(c1)c(-c1cc(-c3cn(C)c4ccc(OC)cc34)on1)cn2C",
    "Class": "No"
  },
  {
    "Compound": "COc1cc2ncnc(Nc3ccc(F)c(Cl)c3)c2cc1OCC(=O)N1CCN(c2ccc(F)cc2)CC1",
    "Class": "No"
  },
  {
    "Compound": "CCCCc1oc2ccccc2c1C(=O)c1ccc(O)cc1",
    "Class": "No"
  },
  {
    "Compound": "CC(C(=O)O)n1c(O)c(C=Nc2cccnc2)sc1=S (stereo not given)",
    "Class": "No"
  },
  {
    "Compound": "N=C(N)c1ccc(-c2ccc(-c3ccc(Cl)cc3Cl)s2)cc1F",
    "Class": "Yes"
  }
]

Could you please tell me whether growth recorded for COc1ccc(Cn2cc(C(=O)N=Nc3c(O)[nH]c4c(Cl)cccc34)nn2)cc1 is less than 70%?
No

Could you please tell me whether growth recorded for COc1ccc(/C(C)=C(\c2ccc(Cl)cc2)c2ccc(OCCN3CCCC3)cc2)cc1 is less than 70%?
Yes
